# System under test: bovine trypsin (Bos taurus)
# Sequence (P00760 24-246): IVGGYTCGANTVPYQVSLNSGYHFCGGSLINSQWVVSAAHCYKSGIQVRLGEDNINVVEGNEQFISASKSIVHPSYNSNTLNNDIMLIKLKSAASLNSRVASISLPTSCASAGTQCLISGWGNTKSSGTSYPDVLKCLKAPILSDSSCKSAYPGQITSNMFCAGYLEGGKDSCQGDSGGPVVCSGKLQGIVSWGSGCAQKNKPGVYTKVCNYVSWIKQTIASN
# Assay procedure: Trypsin inhibitory activity of peptides (BApNA hydrolysis, OD405; IC50, Ki, residual activity)
# Assay type: biochemical
# Condition set: peptide 0.98 μM
Bridge positions count the residues as written; N and C are the ends. Peptide text beside a SMILES is read from it.
Below, each of the molecules is paired with its reported Residual trypsin activity value.
// note: answer is a bare numeric in %

// solved cases for Residual trypsin activity follow
INPUT: Could you share which Residual trypsin activity value was measured for CC[C@H](C)[C@@H]1NC(=O)[C@H](C)NC(=O)[C@@H]2CCCN2C(=O)[C@H](CC(C)C)NC(=O)[C@H](CO)NC(=O)[C@H](CCCCN)NC(=O)[C@H]([C@@H](C)O)NC(=O)[C@H](C)NC(=O)[C@H](CCCNC(=N)N)NC(=O)CNC(=O)[C@@H](N)CSSC[C@@H](C(=O)N[C@@H](Cc2ccccc2)C(=O)O)NC1=O [BT16] (H-CGRATKSLPAICF-OH; disulfide 1-12; C-terminus assumed) ?
OUTPUT: 42.2

INPUT: Further, for CC[C@H](C)[C@@H]1NC(=O)[C@@H]2CCCN2C(=O)[C@@H]2CCCN2C(=O)[C@H]([C@@H](C)CC)NC(=O)[C@H](CO)NC(=O)[C@H](CCCCN)NC(=O)[C@H](C)NC(=O)[C@H](C)NC(=O)[C@H](CCCNC(=N)N)NC(=O)CNC(=O)[C@@H](N)CSSC[C@@H](C(=O)N[C@@H](Cc2ccccc2)C(=O)O)NC1=O [BT26] (H-CGRAAKSIPPICF-OH; disulfide 1-12; N-terminus and C-terminus assumed) ?
OUTPUT: 94.5

With those in mind, consider the next molecule.
INPUT: What value of Residual trypsin activity has been recorded for this entry: CC[C@H](C)[C@@H]1NC(=O)[C@@H]2CCCN2C(=O)[C@@H]2CCCN2C(=O)[C@H]([C@@H](C)CC)NC(=O)[C@H](CO)NC(=O)[C@H](CCCCN)NC(=O)[C@H]([C@@H](C)O)NC(=O)[C@H](Cc2ccc(O)cc2)NC(=O)[C@H](CCCNC(=N)N)NC(=O)CNC(=O)[C@@H](N)CSSC[C@@H](C(=O)N[C@@H](Cc2ccccc2)C(=O)O)NC1=O [BT53] (H-CGRYTKSIPPICF-OH; disulfide 1-12; C-terminus assumed)
OUTPUT: 0.5

Attribution: patent US20230416329A1
